tested on: HCI01 (cells of a triple-negative basal-like breast cancer xenograft); experiment: cell viability (% of vehicle); higher = less cytotoxic; details: 10 µM; 72 h;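 also: PDX cells carrying CMV promoter-driven luciferase, viability read as total photon flux per second by IVIS imaging following D-luciferin, vehicle control 0.1% DMSO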
Consider the following compounds and their measured cell viability readings.

- COMPOUND: "Clc1ccc(COC(Cn2ccnc2)c2ccc(Cl)cc2Cl)cc1.O=[N+]([O-])O (stereo not drawn) [Econazole nitrate]"
  SYSTEM_UNDER_TEST: "HCI01"
  cell viability: 33.7
- COMPOUND: "CC1=NN(c2ccccc2)C(=O)C1"
  SYSTEM_UNDER_TEST: "HCI01"
  cell viability: 80.8
- COMPOUND: "O=C1CCC(N2C(=O)c3ccccc3C2=O)C(=O)N1 (stereo not drawn) [Thalidomide]"
  SYSTEM_UNDER_TEST: "HCI01"
  cell viability: 144
- COMPOUND: "Cl.NCCc1ccc(O)c(O)c1 [Dopamine HCl]"
  SYSTEM_UNDER_TEST: "HCI01"
  cell viability: 112
- COMPOUND: "CCCc1nc2c(C)cc(-c3nc4ccccc4n3C)cc2n1Cc1ccc(-c2ccccc2C(=O)O)cc1"
  SYSTEM_UNDER_TEST: "HCI01"
  cell viability: 107
- COMPOUND: "COC(=O)C1=C(C)NC(C)=C(C(=O)OCCN(C)Cc2ccccc2)C1c1cccc([N+](=O)[O-])c1.Cl (stereo not drawn) [Nicardipine HCl]"
  SYSTEM_UNDER_TEST: "HCI01"
  cell viability: 66
- COMPOUND: "CC(=O)Oc1cc2c(s1)CCN(C(C(=O)C1CC1)c1ccccc1F)C2.Cl (stereo not drawn) [Prasugrel hydrochloride]"
  SYSTEM_UNDER_TEST: "HCI01"
  cell viability: 140
- COMPOUND: "S=C(NCc1ccc2c(c1)OCO2)N1CCN(c2ncnc3c2oc2ccccc23)CC1"
  SYSTEM_UNDER_TEST: "HCI01"
  cell viability: 107

---

Consider the following compounds and their measured cell viability of combination readings.
system: WHIM30 (cells of a triple-negative basal-like breast cancer xenograft); assay: cell viability of combination (% of vehicle); higher = less cytotoxic; settings: 1 µM; 72 h; partner dose: 10 nM
MEASURED_ATTRIBUTE: cell viability of combination

- COMPOUND: "CC(C)CC(NC(=O)CNC(=O)c1cc(Cl)ccc1Cl)B(O)O (stereo not drawn) + CC(C)C[C@H](NC(=O)[C@H](CCc1ccccc1)NC(=O)CN1CCOCC1)C(=O)N[C@@H](Cc1ccccc1)C(=O)N[C@@H](CC(C)C)C(=O)[C@@]1(C)CO1"
  MEASURED_RESULT: 9.5
- COMPOUND: "CCc1cnn2c(NCc3ccc[n+]([O-])c3)cc(N3CCCCC3CCO)nc12 (stereo not drawn) + CC(C)C[C@H](NC(=O)[C@H](CCc1ccccc1)NC(=O)CN1CCOCC1)C(=O)N[C@@H](Cc1ccccc1)C(=O)N[C@@H](CC(C)C)C(=O)[C@@]1(C)CO1"
  MEASURED_RESULT: 7.14
- COMPOUND: "Cc1cn(-c2cc(NC(=O)c3ccc(C)c(Nc4nccc(-c5cccnc5)n4)c3)cc(C(F)(F)F)c2)cn1 [Nilotinib(AMN-107)] + CC(C)C[C@H](NC(=O)[C@H](CCc1ccccc1)NC(=O)CN1CCOCC1)C(=O)N[C@@H](Cc1ccccc1)C(=O)N[C@@H](CC(C)C)C(=O)[C@@]1(C)CO1"
  MEASURED_RESULT: 22.2
- COMPOUND: "CCC(NC(=O)C(C)NC)C(=O)N1CC(O)CC1Cc1c(-c2[nH]c3cc(F)ccc3c2CC2CC(O)CN2C(=O)C(CC)NC(=O)C(C)NC)[nH]c2cc(F)ccc12 (stereo not drawn) + CC(C)C[C@H](NC(=O)[C@H](CCc1ccccc1)NC(=O)CN1CCOCC1)C(=O)N[C@@H](Cc1ccccc1)C(=O)N[C@@H](CC(C)C)C(=O)[C@@]1(C)CO1"
  MEASURED_RESULT: 11.4
- COMPOUND: "CCCCCCCCOc1ccccc1C(=O)Nc1ccc(C(=O)OCC[N+](C)(CC)CC)cc1.[Br-] [Otilonium Bromide] + CC(C)C[C@H](NC(=O)[C@H](CCc1ccccc1)NC(=O)CN1CCOCC1)C(=O)N[C@@H](Cc1ccccc1)C(=O)N[C@@H](CC(C)C)C(=O)[C@@]1(C)CO1"
  MEASURED_RESULT: 17.7
- COMPOUND: "CN(C)CCOc1ccc(C(=C(CCCl)c2ccccc2)c2ccccc2)cc1.O=C(O)CC(O)(CC(=O)O)C(=O)O [Toremifene Citrate] + CC(C)C[C@H](NC(=O)[C@H](CCc1ccccc1)NC(=O)CN1CCOCC1)C(=O)N[C@@H](Cc1ccccc1)C(=O)N[C@@H](CC(C)C)C(=O)[C@@]1(C)CO1"
  MEASURED_RESULT: 17.1
- COMPOUND: "COc1cc(C(=O)O)ccc1NC(=O)C1NC(CC(C)(C)C)C(C#N)(c2ccc(Cl)cc2F)C1c1cccc(Cl)c1F (stereo not drawn) + CC(C)C[C@H](NC(=O)[C@H](CCc1ccccc1)NC(=O)CN1CCOCC1)C(=O)N[C@@H](Cc1ccccc1)C(=O)N[C@@H](CC(C)C)C(=O)[C@@]1(C)CO1"
  MEASURED_RESULT: 23.5
- COMPOUND: "CC(=O)c1cc2c(o1)C(=O)c1ccccc1C2=O [Napabucasin] + CC(C)C[C@H](NC(=O)[C@H](CCc1ccccc1)NC(=O)CN1CCOCC1)C(=O)N[C@@H](Cc1ccccc1)C(=O)N[C@@H](CC(C)C)C(=O)[C@@]1(C)CO1"
  MEASURED_RESULT: 5.17
- COMPOUND: "COc1ccc2c(O[C@H]3CC4C(=O)N(C)CCCC/C=C\\[C@H]5C[C@@]5(C(=O)NS(=O)(=O)C5CC5)NC(=O)[C@@H]4C3)cc(-c3nc(C(C)C)cs3)nc2c1C (stereo partly drawn) [Simeprevir] + CC(C)C[C@H](NC(=O)[C@H](CCc1ccccc1)NC(=O)CN1CCOCC1)C(=O)N[C@@H](Cc1ccccc1)C(=O)N[C@@H](CC(C)C)C(=O)[C@@]1(C)CO1"
  MEASURED_RESULT: 22.1
- COMPOUND: "COC(=O)NC(C(=O)N1CCCC1c1ncc(-c2ccc(-c3ccc(-c4cnc(C5CCCN5C(=O)C(NC(=O)OC)C(C)C)[nH]4)cc3)cc2)[nH]1)C(C)C (stereo not drawn) + CC(C)C[C@H](NC(=O)[C@H](CCc1ccccc1)NC(=O)CN1CCOCC1)C(=O)N[C@@H](Cc1ccccc1)C(=O)N[C@@H](CC(C)C)C(=O)[C@@]1(C)CO1"
  MEASURED_RESULT: 25.3
- COMPOUND: "COc1cc2c(Oc3ccc(NC(=O)C4(C(=O)Nc5ccc(F)cc5)CC4)cc3F)ccnc2cc1OCCCN1CCOCC1 + CC(C)C[C@H](NC(=O)[C@H](CCc1ccccc1)NC(=O)CN1CCOCC1)C(=O)N[C@@H](Cc1ccccc1)C(=O)N[C@@H](CC(C)C)C(=O)[C@@]1(C)CO1"
  MEASURED_RESULT: 22.4
- COMPOUND: "O=C(NN=Cc1ccc([N+](=O)[O-])o1)c1ccc(O)cc1 [Nifuroxazide] + CC(C)C[C@H](NC(=O)[C@H](CCc1ccccc1)NC(=O)CN1CCOCC1)C(=O)N[C@@H](Cc1ccccc1)C(=O)N[C@@H](CC(C)C)C(=O)[C@@]1(C)CO1"
  MEASURED_RESULT: 12.5
- COMPOUND: "Cc1ccc(-n2[nH]c(C)c(NN=C3C=CC=C(c4cccc(C(=O)O)c4)C3=O)c2=O)cc1C [Eltrombopag] + CC(C)C[C@H](NC(=O)[C@H](CCc1ccccc1)NC(=O)CN1CCOCC1)C(=O)N[C@@H](Cc1ccccc1)C(=O)N[C@@H](CC(C)C)C(=O)[C@@]1(C)CO1"
  MEASURED_RESULT: 19.8

Data provenance is the supplement of paper PMC6992640.
